experiment: Clearance in BALB/c mouse at 1 mg/kg, iv and 10 mg/kg, po; assay type: ADME, organism-based; settings: in vivo
endpoint: clearance (mL/min/kg)

[[record]]
molecule = "O=C(c1ccc(Oc2ccc(F)cc2)nc1)N1CCCN(C2CCC2)CC1 [JNJ-39220675]"
assay_result = 94

[[record]]
molecule = "N#Cc1cccc(Oc2ccc(C(=O)N3CCCN(C4CCC4)CC3)cn2)c1"
assay_result = 97


###

assay: Metabolic stability in rat liver microsomes assessed as compound remaining after 30 mins; assay type: ADME, Microsome; details: read-out: Stability
endpoint: remaining at 0.5 h (%)

a = O=C(c1ccc(Oc2ccc(F)cc2)nc1)N1CCCN(C2CCC2)CC1
b = O=C(c1ccc(Oc2ccc(Cl)c(Cl)c2)nc1)N1CCCN(C2CCC2)CC1
c = O=C(c1ccc(Sc2ccc(F)cc2)cn1)N1CCCN(C2CCC2)CC1
## Input Arrange items by their remaining at 0.5 h values in increasing order. Kindly provide the labels arranged according to the requested ordering.
## Output b, c, a
